- Tested on: SNB-19 CNS
- Procedure text: NCI-60 one-dose screen, 48 h (100 = growth as untreated, 0 = no growth, -100 = all killed)
- Condition details: 10 µM
The panel holds about 83,000 compounds, 20% with a hit somewhere; the sample as a whole holds those more often.
Hi there, I'd appreciate the recorded growth for every entry that follows.
Give the value in % but do not write % after it.

Req: growth for O=C(CCl)Nc1ccc(Cl)cc1 ?
Resp: 79.1

Req: Same question, [Cl][Hg][c]1ccc2ccccc2c1 this time
Resp: -62.9

Req: Another: CC(C)C1(NC(=O)C2CC3c4cccc5[nH]cc(c45)CC3N(C)C2)OC2(O)C3CCCN3C(=O)C(Cc3ccccc3)N2C1=O (stereo not given)
Resp: 102

Req: Also need C/C1=C\[C@H](C)C[C@H](C)OC(=O)C[C@H](c2ccc(O)cc2)NC(=O)[C@@H](Cc2c(Br)[nH]c3ccccc23)N(C)C(=O)[C@H](C)NC(=O)[C@@H](C)C1 , thanks.
Resp: -21.9

Req: And then [Cl][Hg][c]1ccc(Cl)s1 , what is it?
Resp: 75.5

Req: Subsequent entry: COS(=O)(=O)c1ccccc1
Resp: 110

Req: Also check CC12OOC(c3ccccc31)c1c2ccc2ccccc12 (stereo not given)
Resp: 64.8

Req: Entry [Cl][Sn]([c]1ccccc1)([c]1ccccc1)[c]1ccccc1 please
Resp: -76.5

Req: Now try C=C1C(=O)O[C@@H]2C[C@@H](C)[C@@H]3C=CC(=O)[C@@]3(C)[C@@H](O)[C@H]12 .
Resp: -63.7

Req: Please answer likewise for NC(=O)c1cc([N+](=O)[O-])c(Cl)c([N+](=O)[O-])c1
Resp: 107
